molecular target: mesangial cell LTD4 receptor (Rattus norvegicus, UniProt Q924T8)
Sequence (Q924T8 whole entry): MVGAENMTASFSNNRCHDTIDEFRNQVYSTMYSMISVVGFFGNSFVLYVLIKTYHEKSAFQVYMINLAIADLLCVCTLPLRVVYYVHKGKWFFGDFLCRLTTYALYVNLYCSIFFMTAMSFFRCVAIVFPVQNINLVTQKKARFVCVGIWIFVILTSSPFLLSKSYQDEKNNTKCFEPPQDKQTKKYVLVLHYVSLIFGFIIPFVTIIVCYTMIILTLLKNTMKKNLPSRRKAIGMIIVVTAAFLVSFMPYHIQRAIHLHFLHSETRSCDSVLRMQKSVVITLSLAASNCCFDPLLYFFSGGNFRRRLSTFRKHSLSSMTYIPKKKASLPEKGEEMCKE
measuredParameter: IC50 (nM)
Write the number in nM without appending the unit.

Query for mesangial cell LTD4 receptor (Rattus norvegicus, UniProt Q924T8): what IC50 does the record show for CCCCC[C@H](O)/C=C/C=C\C=C\C=C\[C@@H](O)[C@@H](O)CCCC(=O)O ? 100
